# SYSTEM NAME: PIM1 (Homo sapiens)
# Sequence (P11309 whole entry, species assumed): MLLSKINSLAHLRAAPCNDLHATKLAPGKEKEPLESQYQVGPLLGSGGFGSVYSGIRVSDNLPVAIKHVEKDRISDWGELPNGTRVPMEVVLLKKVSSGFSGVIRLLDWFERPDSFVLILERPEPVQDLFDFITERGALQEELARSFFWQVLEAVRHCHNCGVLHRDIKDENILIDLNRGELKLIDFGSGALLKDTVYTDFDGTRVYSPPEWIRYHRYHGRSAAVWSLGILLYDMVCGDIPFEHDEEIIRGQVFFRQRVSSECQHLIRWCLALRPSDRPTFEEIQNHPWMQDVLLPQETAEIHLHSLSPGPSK
# EXPERIMENTAL DETAILS: FRET-based coupled-enzyme protein kinase inhibition assay
# Assay type: biochemical
# RUN PARAMETERS: compound at 10 µM, 1% DMSO
Examples of compounds with documented inhibition at 10 µM follow.
Report the figure in % without appending any unit label.

The examples below pair each entry with its known result.
COMPOUND	inhibition at 10 µM (%)
Nc1ncnc2c1ncn2[C@@H]1O[C@H](COC(=O)N2CCN(C(=O)N3CCOCC3)CC2)[C@@H](O)[C@H]1O [Compound C89]	-4
Nc1ncnc2c1ncn2[C@@H]1O[C@H](COC(=O)N2CCN(Cc3ccccc3)CC2CO)[C@@H](O)[C@H]1O (stereo partly drawn) [Compound C13]	1
Nc1ncnc2c1ncn2[C@@H]1O[C@H](COC(=O)N[C@@H]2CCN(Cc3ccccc3)C2)[C@@H](O)[C@H]1O [Compound C10]	1

inhibition at 10 µM recorded for this compound, CC(C)N1CCC(NC(=O)OC[C@H]2O[C@@H](n3cnc4c(N)ncnc43)[C@H](O)[C@@H]2O)CC1 [Compound C19] , is -7

inhibition at 10 µM recorded for this compound, Nc1ncnc2c1ncn2[C@@H]1O[C@H](COC(=O)NCCN2CCCC2=O)[C@@H](O)[C@H]1O [Compound C22] , is -6

inhibition at 10 µM recorded for this compound, Nc1ncnc2c1ncn2[C@@H]1O[C@H](COC(=O)N2CCC[C@H]2CO)[C@@H](O)[C@H]1O [Compound C9] , is 3

====

Examples of molecules with documented inhibition at 10 µM follow.
# SYSTEM NAME: PAK4 (Homo sapiens, UniProt O96013)
# Sequence (O96013 whole entry, species assumed): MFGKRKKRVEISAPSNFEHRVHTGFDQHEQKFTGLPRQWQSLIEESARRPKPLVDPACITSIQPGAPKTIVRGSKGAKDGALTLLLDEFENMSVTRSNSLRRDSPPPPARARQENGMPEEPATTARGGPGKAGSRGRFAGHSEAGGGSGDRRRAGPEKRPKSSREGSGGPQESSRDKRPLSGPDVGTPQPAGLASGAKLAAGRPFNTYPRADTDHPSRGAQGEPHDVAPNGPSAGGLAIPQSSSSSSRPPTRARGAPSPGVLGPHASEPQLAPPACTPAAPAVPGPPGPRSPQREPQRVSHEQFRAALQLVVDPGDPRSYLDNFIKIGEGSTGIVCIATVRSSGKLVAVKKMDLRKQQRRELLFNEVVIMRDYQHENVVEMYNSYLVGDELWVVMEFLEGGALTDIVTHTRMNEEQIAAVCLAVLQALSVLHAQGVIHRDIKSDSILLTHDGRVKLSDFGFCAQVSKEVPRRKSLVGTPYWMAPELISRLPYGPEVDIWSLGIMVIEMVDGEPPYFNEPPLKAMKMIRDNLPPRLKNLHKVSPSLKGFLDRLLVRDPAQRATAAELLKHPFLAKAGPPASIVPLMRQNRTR
# EXPERIMENTAL DETAILS: FRET-based coupled-enzyme protein kinase inhibition assay
# Assay type: biochemical
# RUN PARAMETERS: compound at 10 µM, 1% DMSO
# Protocol: A biochemical assay was then performed in order to measure the protein kinase inhibition. It employed a fluorescence-based coupled-enzyme format and was based on the differential sensitivity of phosphorylated and non-phosphorylated peptides to proteolytic cleavage. […] A significant benefit of this ratiometric method for quantitating reaction progress is the elimination of well-to-well variations in FRET-peptide concentration and signal intensities. […]
Report the figure in % without appending any unit label.

MOLECULE	inhibition at 10 µM / %
Nc1ncnc2c1ncn2[C@@H]1O[C@H](COC(=O)N[C@@H]2CCN(Cc3ccccc3)C2)[C@@H](O)[C@H]1O	14
Nc1ncnc2c1ncn2[C@@H]1O[C@H](COC(=O)NC[C@H](O)CO)[C@@H](O)[C@H]1O	19
CN(C)CCNC(=O)OC[C@H]1O[C@@H](n2cnc3c(N)ncnc32)[C@H](O)[C@@H]1O	1
Nc1ncnc2c1ncn2[C@@H]1O[C@H](COC(=O)NCCCc2nc3ccccc3[nH]2)[C@@H](O)[C@H]1O	15
Nc1ncnc2c1ncn2[C@@H]1O[C@H](COC(=O)N2CCN(C(=O)N3CCOCC3)CC2)[C@@H](O)[C@H]1O	-4
CC(C)N1CCC(NC(=O)OC[C@H]2O[C@@H](n3cnc4c(N)ncnc43)[C@H](O)[C@@H]2O)CC1	3

inhibition at 10 µM recorded for this molecule, `N#CCCN1CCN(C(=O)OC[C@H]2O[C@@H](n3cnc4c(N)ncnc43)[C@H](O)[C@@H]2O)CC1` , is 4

inhibition at 10 µM recorded for this molecule, Nc1ncnc2c1ncn2[C@@H]1O[C@H](COC(=O)N2CCN(Cc3ccccc3)CC2CO)[C@@H](O)[C@H]1O (stereo partly shown) , is 7

inhibition at 10 µM recorded for this molecule, `C[C@@H](NC(=O)OC[C@H]1O[C@@H](n2cnc3c(N)ncnc32)[C@H](O)[C@@H]1O)c1ccc(Cl)cc1` , is 12

inhibition at 10 µM recorded for this molecule, `Nc1ncnc2c1ncn2[C@@H]1O[C@H](COC(=O)N2CCN(CCc3ccccc3)CC2)[C@@H](O)[C@H]1O` , is 6

inhibition at 10 µM recorded for this molecule, `CN1CCN(CCNC(=O)OC[C@H]2O[C@@H](n3cnc4c(N)ncnc43)[C@H](O)[C@@H]2O)CC1` , is 4

inhibition at 10 µM recorded for this molecule, `CS(=O)(=O)N1CC2(CCN(C(=O)OC[C@H]3O[C@@H](n4cnc5c(N)ncnc54)[C@H](O)[C@@H]3O)CC2)c2ccccc21` , is 7

inhibition at 10 µM recorded for this molecule, `Nc1ncnc2c1ncn2[C@@H]1O[C@H](COC(=O)NCCN2CCCC2=O)[C@@H](O)[C@H]1O` , is 7

inhibition at 10 µM recorded for this molecule, `Nc1ncnc2c1ncn2[C@@H]1O[C@H](COC(=O)N2CCC[C@H]2CO)[C@@H](O)[C@H]1O` , is 1

inhibition at 10 µM recorded for this molecule, Nc1ncnc2c1ncn2[C@@H]1O[C@H](COC(=O)N2CCC(Cc3ccc(F)cc3)C2)[C@@H](O)[C@H]1O (stereo partly shown) , is 10

inhibition at 10 µM recorded for this molecule, `Nc1ncnc2c1ncn2[C@@H]1O[C@H](COC(=O)N2CCS(=O)(=O)CC2)[C@@H](O)[C@H]1O` , is 2
